From: patent US11384078B2

# Tested on: Trypanosoma cruzi amastigotes cultured in 3T3 fibroblast cells
# assay.comment: Assay for growth inhibition of kinetoplastid parasite Trypanosoma cruzi (beta-galactosidase Tulahuen strain, CPRG readout)
# Assay type: cell-based
# condition.set: Trypanosoma cruzi, Fibroblast, T. cruzi amastigotes in 3T3 fibroblast cells; read-out: Buckner infectious T. cruzi EC50
pEC50: −log10 of the molar value.
Response key: Met means pEC50 >= 8; Not met means pEC50 < 8.

The following compounds have reported results that may help.
CC(C)c1cnc2nn(-c3cc(NC(=O)C4(C(F)(F)F)CC4)ccc3F)cc2c1 :: Not met
COc1ccc(C(=O)Nc2ccc(F)c(-n3cc4cc(C(C)C)cnc4n3)c2)o1 :: Not met
O=C(Nc1ccc(F)c(-n2cc3cc(-c4ccccn4)cnc3n2)c1)N1CC(F)(F)C1 :: Met

Textbook exercise: given the entry CC(C)(C)Cc1cnc2nn(-c3cc(NC(=O)N4CC(F)(F)C4)ccc3F)cc2c1 , state whether its pEC50 is greater than or equal to 8.
Met

Now give it for CNC(=O)Nc1ccc(F)c(-n2cc3cc(NC)cnc3n2)c1 too.
Not met

Now give it for CN(C)c1cnc2nn(-c3cc(NC(=O)N4CC5(CC5)C4)ccc3F)cc2c1 too.
Not met

Now give it for CC(C)c1cnc2nn(-c3cc(NC(=O)C4CC(F)(F)C4)ccc3F)cc2c1 too.
Not met

Now give it for Cc1nc(CO)c(C(=O)Nc2ccc(F)c(-n3cc4cc(-c5ncccc5C)cnc4n3)c2)o1 too.
Not met

Now give it for O=C(Nc1ccc(F)c(-n2cc3cc(NC4CC4)cnc3n2)c1)N1CC(F)C1 too.
Not met

Now give it for O=C(Nc1ccc(F)c(-n2cc3cc(-c4ccc(F)cn4)cnc3n2)c1)N1CC(F)C1 too.
Met

Now give it for Cc1cc(C(=O)Nc2ccc(F)c(-n3cc4cc(C(C)C)cnc4n3)c2)c(C)o1 too.
Not met

Now give it for O=C(Nc1ccc(F)c(-n2cc3cc(-c4ncccc4F)cnc3n2)c1)N1CCC1 too.
Met

Now give it for O=C(Nc1ccc(F)c(-n2cc3cc(N4CC(F)C4)cnc3n2)c1)N1CC[C@@H](F)C1 too.
Met

Now give it for O=C(Nc1ccc(F)c(-n2cc3cc(N4CC5(CC5)C4)cnc3n2)c1)N1CCCC1 too.
Met

Now give it for CC(C)c1cnc2nn(-c3cc(NC(=O)CC4CC4)ccc3F)cc2c1 too.
Not met

Now give it for CC(C)c1cnc2nn(-c3cc(NC(=O)N4CC(F)C4)ccc3F)cc2c1 too.
Met

Now give it for CC(C)Cc1cnc2nn(-c3cc(NC(=O)c4ccco4)ccc3F)cc2c1 too.
Met

Now give it for CC(C)(C)c1cnc2nn(-c3cc(NC(=O)N4CC(F)(F)C4)ccc3F)cc2c1 too.
Not met

Now give it for O=C(Nc1ccc(F)c(-n2cc3cc(CC(F)(F)F)cnc3n2)c1)N1CC(F)C1 too.
Met

Now give it for O=C(Nc1ccc(F)c(-n2cc3cc(N4CCNCC4)cnc3n2)c1)N1CC(F)C1 too.
Not met

Now give it for O=C(Nc1ccc(F)c(-n2cc3cc(N4CC(F)C4)cnc3n2)c1)N1CCC1 too.
Met

Now give it for O=C(Nc1ccc(F)c(-n2cc3cc(CC4CCC4)cnc3n2)c1)c1ccco1 too.
Met

Now give it for CC(C)CNc1cnc2nn(-c3cc(NC(=O)N4CC(F)C4)ccc3F)cc2c1 too.
Not met
